The following binders are shown together with reported KD Ratio pH 5.5/pH 7.4 values.
- system: T1, human immunoglobulin E (hIgE) (human, UniProt P01854-1 1-428)
- T1 construct: also called human IgE; Native IgE (Abcam)
- T1 sequence (P01854 whole entry): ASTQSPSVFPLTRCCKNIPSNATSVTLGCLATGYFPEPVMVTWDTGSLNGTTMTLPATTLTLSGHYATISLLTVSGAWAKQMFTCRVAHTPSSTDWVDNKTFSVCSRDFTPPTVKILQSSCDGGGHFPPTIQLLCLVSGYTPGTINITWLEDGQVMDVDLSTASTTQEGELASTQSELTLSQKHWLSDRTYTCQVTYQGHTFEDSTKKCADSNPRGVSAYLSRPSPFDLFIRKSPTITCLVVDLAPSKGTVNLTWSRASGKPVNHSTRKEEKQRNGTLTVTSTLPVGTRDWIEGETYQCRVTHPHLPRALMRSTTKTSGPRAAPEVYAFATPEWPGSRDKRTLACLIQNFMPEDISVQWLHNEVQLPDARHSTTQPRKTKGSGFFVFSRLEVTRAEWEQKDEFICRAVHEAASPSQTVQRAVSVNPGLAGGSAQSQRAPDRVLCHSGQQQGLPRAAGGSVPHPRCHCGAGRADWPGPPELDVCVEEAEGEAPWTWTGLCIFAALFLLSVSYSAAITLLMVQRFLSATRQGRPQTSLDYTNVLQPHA
- assay-summary: SPR (Biacore) on hIgE
Lab note: record the figure alone, no unit after it.

Return value of KD Ratio pH 5.5/pH 7.4 for input CL-2C mAb 28 (antibody, V domains shown, also called VK50H + VH33H100BH) VH: QVQLVQSGAEVMKPGSSVKVSCKASGYTFSWYHLEWVRQAPGHGLEWMGEIDPGTFTTNYNEKFKARVTFTADTSTSTAYMELSSLRSEDTAVYYCARFSHFSGSHYDYFDYWGQGTLVTVSS VL: EIVMTQSPATLSVSPGERATLSCRASQSIGTNIHWYQQKPGQAPRLLIYHASESISGIPARFSGSGSGTEFTLTISSLQSEDFAVYYCQQSWSWPTTFGGGTKVEIK , no commentary. 9

Return value of KD Ratio pH 5.5/pH 7.4 for input CL-2C mAb 18 (antibody, V domains shown, also called VK50H92D94H + VH33H100BH) VH: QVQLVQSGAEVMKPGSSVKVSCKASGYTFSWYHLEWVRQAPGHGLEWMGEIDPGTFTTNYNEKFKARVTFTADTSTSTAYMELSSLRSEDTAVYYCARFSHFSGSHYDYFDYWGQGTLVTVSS VL: EIVMTQSPATLSVSPGERATLSCRASQSIGTNIHWYQQKPGQAPRLLIYHASESISGIPARFSGSGSGTEFTLTISSLQSEDFAVYYCQQSDSHPTTFGGGTKVEIK , no commentary. 0.2

Return value of KD Ratio pH 5.5/pH 7.4 for input CL-2C mAb 11 (antibody, V domains shown, also called VK50H94H + VH58H100BH) VH: QVQLVQSGAEVMKPGSSVKVSCKASGYTFSWYWLEWVRQAPGHGLEWMGEIDPGTFTTHYNEKFKARVTFTADTSTSTAYMELSSLRSEDTAVYYCARFSHFSGSHYDYFDYWGQGTLVTVSS VL: EIVMTQSPATLSVSPGERATLSCRASQSIGTNIHWYQQKPGQAPRLLIYHASESISGIPARFSGSGSGTEFTLTISSLQSEDFAVYYCQQSWSHPTTFGGGTKVEIK , no commentary. 6

Return value of KD Ratio pH 5.5/pH 7.4 for input CL-2C mAb 29 (antibody, V domains shown, also called VK50H + VH33H100AH) VH: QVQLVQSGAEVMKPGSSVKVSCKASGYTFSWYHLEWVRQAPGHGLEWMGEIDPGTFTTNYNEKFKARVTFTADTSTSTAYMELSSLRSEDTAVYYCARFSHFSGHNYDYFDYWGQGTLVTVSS VL: EIVMTQSPATLSVSPGERATLSCRASQSIGTNIHWYQQKPGQAPRLLIYHASESISGIPARFSGSGSGTEFTLTISSLQSEDFAVYYCQQSWSWPTTFGGGTKVEIK , no commentary. 3.8

Let us examine a further case.
Return value of KD Ratio pH 5.5/pH 7.4 for input CL-2C mAb 3 (antibody, V domains shown, also called VK28H94H + VH33H100BH) VH: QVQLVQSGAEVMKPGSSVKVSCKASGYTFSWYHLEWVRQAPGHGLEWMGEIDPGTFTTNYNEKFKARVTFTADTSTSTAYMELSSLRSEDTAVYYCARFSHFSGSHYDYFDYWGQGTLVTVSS VL: EIVMTQSPATLSVSPGERATLSCRASQHIGTNIHWYQQKPGQAPRLLIYYASESISGIPARFSGSGSGTEFTLTISSLQSEDFAVYYCQQSWSHPTTFGGGTKVEIK , no commentary. 8.4
